assaySystem: T1, human Claudin 18.2 (hCLDN18.2) (human, UniProt P56856-2 1-261)
T1 construct: whole, on cells; also called CLDN18A2; claudin 18 splice variant 2
assay: FACS, HEK293-hCLDN18.2 cells
Kindly state pEC50 for each of the entries shown.
Friendly reminder that pEC50 comes from taking -log10 of the concentration in mol/L.

QUERY: Look up pEC50 for this binder: ch-40G7 (antibody, V domains shown, also called chimeric antibody of clone 40G7) VH: QVQLQQPGTELVKPGASVKLSCKASGYTFTNYWMHWVKQRPGHGLEWIGMIHPNSYSTNYNEKFRSKATLTVDKSSSTAYMQLSSLTSEDSAVYYCTRIYYGNAMDYWGQGTSVTVSS VL: DIVMTQSPSSLTVTAGERVTMSCKSSQSLFNSGNQKNYLTWYHQKPGQPPKLLIYWAFTRESGVPDRFTGSGSGTDFTLTIRSVQAEDLAVYYCQNDYSYPFTFGSGTKLEIK
RESULT: 8.64

QUERY: Try this binder too: ch-43F5 (antibody, V domains shown, also called chimeric antibody of clone 43F5) VH: QVQLQQPGAELVKPGTSVKLSCKASGYTFTSYWTHWVKQRPGQGLEWIGMIHPNSGSSNYNEKFKSKATLTVDKSSSTAYMQLRRLTSEDSAVYYCTRIHYGNAMDYWGQGTSVTVSS VL: DIVMTQSPSSLTVTAGEKVTMTCKSSQSLLNSGNQKNYLTWYQQKPGQPPKLLIYWASTRESGVPDRFTGSGSGTDFTLTISSVQAEDLAIYYCQNDYSFPFTFGSGTKLEIK
RESULT: 8.82

QUERY: Try this binder too: ch-59F9 (antibody, V domains shown, also called chimeric antibody of clone 59F9) VH: QVQLQQSGAELMKPGASVKLPCKASGYTLTGYWIEWLKQRPRHGLEWIGEILLGSGSIKYNVKFKDKATFTADTSSNTAYMQLNSLTTEDSAIYYCARKGLRGNSFDYWGQGTTLTVSS VL: DIVMTQSPSSLTVTAGEKVTMSCKSSQSLLNSGNQKSYLTWYQQKPGQPPKRLIYWASTRESGVPDRFTGSGSGTDFTLTISSVQAEDLAVYYCQNDYYYPFTFGSGTKLEIK
RESULT: 8.62

QUERY: Try this binder too: ch-37G8 (antibody, V domains shown, also called chimeric antibody of clone 37G8) VH: EVQLQQSGPVLVKPGASVKMSCKASGYTFSDYHMNWVKQSHGKSLEWVGLINPYNGGIRFNQKFKGKATLTVDKSSSTAYMELNSLTSEDSAVYYCATIYYGNSFAYWGQGTLVTVSA VL: DIVMTQSPSSLTVTAGEKVTLTCKSGQSLLNSGNQKNYLTWYQQKPGQPPKLLIYWASTRESGVPDRFTGSGSGTDFTLTISGVQAEDLAVYYCQNDYFYPYTFGGGTKLEIK
RESULT: 8.30

QUERY: Try this binder too: ch-287F12 (antibody, V domains shown, also called chimeric antibody of clone 287F12) VH: QIQLVQSGPELKRPGETVRISCKASGFTFTTAGMHWVQKMAGKGLKWLGWTNTHSGEPKYAEDFKGRFAFSLDTSGSDAYLQIGNLKYEDAATYFCAKWGRGNALDYWGQGTSVTVSS VL: DIVMTQSPSSLTVTAGEKVTMTCKSSQSLLNSGNQKNYLTWYQQKPGQPPKLLIYWASTRESGVPDRFTGSGSGTDFTLTINTVQAEDLAVYYCQNTYSYPLTFGGGTKLELR
RESULT: 8.58

The reported measurements were obtained from patent US20220411492A1.
